# assay procedure: logP determination by HPLC (reversed-phase C 18), EEC Directive 79/831 Annex V.A8
# Format: physicochemical
# setup conditions: reversed-phase C18 HPLC column, pH 2, reversed-phase C 18, 43° C., acidic range, 0.1% aqueous phosphoric acid/acetonitrile
reported metric: chromatographic logP
Output spec: single numeric token, no unit.

Previously resolved entries follow.
{"compound": "Cn1nnc(-c2cnn(C3CN(C(=O)Nc4ccc(OC(F)(F)F)cc4)N=C3c3ccc(Cl)cc3)c2)n1 (centres unmarked)", "reported metric": "chromatographic logP", "measured": 3.75}
{"compound": "CC(C)(C)n1nnc(-c2cnn(CC(=O)c3ccc(Cl)cc3)c2)n1", "reported metric": "chromatographic logP", "measured": 2.96}
{"compound": "CC(C)(C)n1nnc(-c2cnn(C3CNN=C3c3ccc(Cl)cc3)c2)n1 (centres unmarked)", "reported metric": "chromatographic logP", "measured": 2.91}

Input line: May I ask what chromatographic logP has been recorded for "O=C(Cn1cc(-c2nn[nH]n2)cn1)c1ccc(Cl)cc1" ?
Output line: 1.6

Input line: May I ask what chromatographic logP has been recorded for Cn1nnc(-c2cnn(C3CN(C(=O)N(CC#N)c4ccc(OC(F)(F)F)cc4)N=C3c3ccc(Cl)cc3)c2)n1 (centres unmarked) ?
Output line: 3.51

The measured values listed here are drawn from patent US7345080B2.
